B1: Growth factor receptor-bound protein 2, Q08012 (parent)
chain: MEAIAKHDFSATADDELSFRKTQILKILNMEDDSNWYRAELDGKEGLIPSNYIEMKNHDWYYGRITRADAEKLLSNKHEGAFLIRISESSPGDFSLSVKCPDGVQHFKVLRDAQSKFFLWVVKFNSLNELVEYHRTASVSRSQDVKLRDMIPEEMLVQALYDFVPQESGELDFRRGDVITVTDRSDENWWNGEIGNRKGIFPATYVTPYHS

Variants of: B1
assay.conditions: Drosophila melanogaster; pH 6; 25 °C; Thermal; CD; phosphate 50 mM; Na2SO4 0.4 M; structure 2A36; whole UniProt chain shown
measurement.label: unfolding free energy
In your response, put the unit directly after the numeric value.

[[record]]
mutant_id = "T22A"
measurement_label = "unfolding free energy"
obs_value = "2.2 kcal/mol"

[[record]]
mutant_id = "T22K"
measurement_label = "unfolding free energy"
obs_value = "1.8 kcal/mol"

[[record]]
mutant_id = "T22G"
measurement_label = "unfolding free energy"
obs_value = "4.2 kcal/mol"

[[record]]
mutant_id = "T22N"
measurement_label = "unfolding free energy"
obs_value = "3.1 kcal/mol"

[[record]]
mutant_id = "T22S"
measurement_label = "unfolding free energy"
obs_value = "2.4 kcal/mol"


For the 2 variants below, give their unfolding free energy values.
1. T22F
2. T22D

stdout:
3.1 kcal/mol
3.3 kcal/mol
